This section presents compounds with their documented growth values.
Tested on: HL-60(TB) leukemia
testDetails: NCI-60 one-dose screen, 48 h (100 = growth as untreated, 0 = no growth, -100 = all killed)
testContext: 10 µM unless noted
This is part of a sample that, as a whole, favours compounds with a hit. Of some 83,000 tested, about 20% had one in any assay.
Answer in %, number only, no unit symbol.

INSERT INTO assay_data (compound, targetortestsystem, experimentalvalue) VALUES
  ('CCN1CCN(c2nc(NNC(=O)c3ccccc3)nc(N3CCN(C(c4ccccc4)c4ccccc4)CC3)n2)CC1', 'HL-60(TB) leukemia', 23.3);

Q: Give reported growth value for "O=S(=O)(Nc1ccc(Br)cc1)c1ccc(-c2cnc(C3CC3)o2)cc1"
Ans: -36

Q: Give reported growth value for O=C(NCc1ccco1)C1CN(c2ccc(Cl)cc2)N(c2ccc(Cl)cc2)C1=O (stereo not given)
Ans: 5.03

Q: Give reported growth value for "N#Cc1c(N)n2c(nc1=Nc1ccc(Cl)cc1)sc1cc(Cl)ccc12"
Ans: 117

Q: Give reported growth value for "CCN(CC)CCSCCCNc1c2ccc(Cl)cc2nc2ccc(OC)cc12"
Ans: -35.4

Q: Give reported growth value for COc1ccc2c(c1)C(C)Cc1c(Cl)ncnc1N2C (stereo not given)
Ans: -0.632

Q: Give reported growth value for "CN1CCN(CCCOc2ccc3nc(Nc4cc(Cl)cc(Cl)c4)ccc3c2)CC1"
Ans: -39.2
